Molecular target: human IL-13 (human, UniProt P35225 25-146, limits assumed)
Sequence (P35225 other isoform, or with tags, fused parts or gaps limits assumed): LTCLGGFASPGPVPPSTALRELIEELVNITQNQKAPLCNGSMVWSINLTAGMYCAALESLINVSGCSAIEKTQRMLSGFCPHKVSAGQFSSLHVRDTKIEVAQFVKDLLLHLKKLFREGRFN
Assay: cell-based or functional assay
Quantity Kind: IC50, HEK-Blue IL-13Ra1/IL-4Ra STAT6-SEAP reporter assay (µg/mL)
Value expressed in µg/mL; do not type the unit.

Here is how some binders turned out for IC50, HEK-Blue IL-13Ra1/IL-4Ra STAT6-SEAP reporter assay.
1) AbH (antibody, human IgG1, kappa, V domains shown) VH: QVTLRESGPALVKPTQTLTLTCTVSGASLSRYSVNWIRQPPGKALEWLAMIWGDGKIVYNSALKSRLTISKDTSKNQVVLTMTNMDPVDTATYYCAGDGYYPYAMDNWGQGSLVTVSS VL: DIVMTQSPDSLSVSLGERATINCRASKSVDSYGNSYMHWYQQKPGQPPKLLIYRASNLESGVPDRFSGSGSGTDFTLTISSLQAEDVAVYYCQQNNEDPRTFGGGTKVEIKR    0.107
2) AbK (antibody, human IgG1, kappa, V domains shown) VH: QVTLRESGPALVKPTQTLTLTCTVSGSSLSRYSVNWIRQPPGKALEWLAMIWGDGKIVYNSALKSRLTISKDTSKNQVVLTMTNMDPVDTATYYCAGDGYYPYAMDNWGQGSLVTVSS VL: DIVMTQSPDSLSVSLGERATINCRASQSVDSYGNSYMHWYQQKPGQPPKLLIYLASNLESGVPDRFSGSGSGTDFTLTISSLQAEDVAVYYCQQNNEDPRTFGGGTKVEIKR    0.172

Please look at the following binder next.
IC50, HEK-Blue IL-13Ra1/IL-4Ra STAT6-SEAP reporter assay for AbO (antibody, human IgG1, kappa, V domains shown) VH: QVTLRESGPALVKPTQTLTLTCTVSGYSLSAYSVNWIRQPPGKALEWLAMIWGDGKIVYNSALKSRLTISKDTSKNQVVLTMTNMDPVDTATYYCAGDGYFPYAMDVWGQGSLVTVSS VL: DIVMTQSPDSLSVSLGERATINCRASKSVDYYGHSYMHWYQQKPGQPPKLLIYLASNLESGVPDRFSGSGSGTDFTLTISSLQAEDVAVYYCQQNNEDPRTFGGGTKVEIKR ?
0.165

// provenance: patent US20260116963A1
